# ASSAY_COMMENT: protein stability index of a GFP-peptide fusion (yeast GPS) (PSI 1-4); higher = more stable; sorted into four equal gates, so the index is relative within each strain
# MEASUREMENT_SETUP: ubr1∆
List of protein stability index values.

{"RESIDUE_STRING": "DIPELSFFHQSNMQKSL [RPN3]", "protein stability index": 2.87}
{"RESIDUE_STRING": "GTLLREDDNTPAGHAGN [YDL088C/ASM4]", "protein stability index": 3}
{"RESIDUE_STRING": "YGFSNKEYISRLWHTLK [SNF5]", "protein stability index": 1.19}
{"RESIDUE_STRING": "FITNVQSISQNSSSSTP [SWI1]", "protein stability index": 2.44}
{"RESIDUE_STRING": "EFANFELKDICSFAVTK [YML103C/NUP188]", "protein stability index": 2.05}
{"RESIDUE_STRING": "SSTPKFTKKPVTPNDKI [SIR4]", "protein stability index": 3.08}
{"RESIDUE_STRING": "SVVAKQLLNGQKIVVVR [RPL16A]", "protein stability index": 1.24}
{"RESIDUE_STRING": "DVFTINPHQKDQLIISS [YML103C/NUP188]", "protein stability index": 2.74}
{"RESIDUE_STRING": "VMTVPGIDPTRIYTNSF [RPO21]", "protein stability index": 2.1}
{"RESIDUE_STRING": "LSHYIRQCFQDNCCDFK [MED1]", "protein stability index": 2.83}
{"RESIDUE_STRING": "AKLHRISPKIWCAGAGT [PUP1]", "protein stability index": 1.88}
{"RESIDUE_STRING": "LNDRQEEISRLQRDLIQ [YIL149C/MLP2]", "protein stability index": 3.05}
{"RESIDUE_STRING": "IKEIINASKVISTPIIN [RPO31]", "protein stability index": 1.53}
{"RESIDUE_STRING": "QKDKSDTYKRFKYLLGV [ISW2]", "protein stability index": 1.58}
{"RESIDUE_STRING": "RRGAHGSELSSKIRKIH [SIR3]", "protein stability index": 2.54}
{"RESIDUE_STRING": "IVSKEYEKNFEATLESK [ESC2]", "protein stability index": 2.88}
{"RESIDUE_STRING": "LYYDEDINVESLTQSVC [PUP2]", "protein stability index": 2.21}
{"RESIDUE_STRING": "GHIGAYLIVAGVDPTGS [PUP1]", "protein stability index": 1.65}
{"RESIDUE_STRING": "AQTIGRNSKTVREFLEK [PRE6]", "protein stability index": 3.02}
{"RESIDUE_STRING": "GEITFDGIGGLTEQIRE [RPT4]", "protein stability index": 3.54}
{"RESIDUE_STRING": "EELRDLYQTYHVLVGDL [FAS1]", "protein stability index": 2.38}
{"RESIDUE_STRING": "KIPLPEVHDLIGFITSG [POP1]", "protein stability index": 1.91}
{"RESIDUE_STRING": "KLTVCFDDILKVGAEMM [MED2]", "protein stability index": 2}
{"RESIDUE_STRING": "LIELSGGQRSLIALSLI [SMC2]", "protein stability index": 2.27}
{"RESIDUE_STRING": "SKKQRNNGSKDHGDGIL [RPN9]", "protein stability index": 2.78}
{"RESIDUE_STRING": "IATGCKDGRIRIFKITE [YGL100W/SEH1]", "protein stability index": 2.43}
{"RESIDUE_STRING": "KISGGNDKQGFPMKQGV [RPS6A]", "protein stability index": 2.85}
{"RESIDUE_STRING": "SSDAFEVDVCDKCGLMG [RET1]", "protein stability index": 2.12}
{"RESIDUE_STRING": "TEDGWIYHGNHDVGELF [PRE2]", "protein stability index": 2.33}
{"RESIDUE_STRING": "TRALQISMNAPVFVDLE [RPO26]", "protein stability index": 3}

###

# ASSAY_COMMENT: protein stability index of a GFP-peptide fusion (yeast GPS) (PSI 1-4); higher = more stable; sorted into four equal gates, so the index is relative within each strain
# MEASUREMENT_SETUP: ubr1∆
METRIC_NAME: protein stability index

{"RESIDUE_STRING": "SFEETVEILFEAGASAE [RPO21]", "TEST_RESULT": 2.51}
{"RESIDUE_STRING": "EISASESKFILEALRQN [RRP45]", "TEST_RESULT": 2.81}
{"RESIDUE_STRING": "MGQIATFIYFAYFLIIV [COB]", "TEST_RESULT": 1.11}
{"RESIDUE_STRING": "YKVMHQIRACKDLKHII [PRP8]", "TEST_RESULT": 2.19}
{"RESIDUE_STRING": "GLTNWAAAYATGLLIAR [RPL5]", "TEST_RESULT": 1.1}
{"RESIDUE_STRING": "AELDDCRGVSENVILGQ [RPO21]", "TEST_RESULT": 3.56}
{"RESIDUE_STRING": "RVQVGDIVTVGQCRPIS [RPS11A]", "TEST_RESULT": 3.23}
{"RESIDUE_STRING": "FGAKPDENKASATSKPA [YJL041W/NSP1]", "TEST_RESULT": 2.74}
{"RESIDUE_STRING": "LTTFANQVMMDRKIQGW [ARP7]", "TEST_RESULT": 2.65}
{"RESIDUE_STRING": "LQEIYQTDAIKSDEAKW [RPN5]", "TEST_RESULT": 2.16}
{"RESIDUE_STRING": "NDLVKARDLLDDLEKTL [RPN9]", "TEST_RESULT": 3.15}
{"RESIDUE_STRING": "VQGGNAAPSAADIKAVV [RPP2B]", "TEST_RESULT": 3.23}
{"RESIDUE_STRING": "MYTLSAQDEVFSLAFSP [ASC1]", "TEST_RESULT": 2.75}
{"RESIDUE_STRING": "NRTFTDPPFRIEEQGWG [TAF14]", "TEST_RESULT": 3.07}

###

# ASSAY_COMMENT: protein stability index of a GFP-peptide fusion (yeast GPS) (PSI 1-4); higher = more stable; sorted into four equal gates, so the index is relative within each strain
# MEASUREMENT_SETUP: san1∆
METRIC_NAME: protein stability index

{"RESIDUE_STRING": "YHSGRLLIQGPKASSAK [ITC1]", "TEST_RESULT": 3.2}
{"RESIDUE_STRING": "TQRIMTNVIAFAFWNLL [YLR018C/POM34]", "TEST_RESULT": 1.74}
{"RESIDUE_STRING": "LGVIHKGNLLEGKKVMA [RPN2]", "TEST_RESULT": 1.17}
{"RESIDUE_STRING": "GYDIFLNVVLDDAMEIN [SMX2]", "TEST_RESULT": 3.17}
{"RESIDUE_STRING": "ILVMETSEEQTKFLAKN [SWP82]", "TEST_RESULT": 2.94}
{"RESIDUE_STRING": "TTSRFSKQVTDYYQSIY [FAS2]", "TEST_RESULT": 2.47}
{"RESIDUE_STRING": "LRKNKLGYARFILLDRL [SMC4]", "TEST_RESULT": 1.14}

###

# ASSAY_COMMENT: protein stability index of a GFP-peptide fusion (yeast GPS) (PSI 1-4); higher = more stable; sorted into four equal gates, so the index is relative within each strain
# MEASUREMENT_SETUP: pdr5∆
Classification field: true = protein stability index at or over 3; false = protein stability index under 3.

{"RESIDUE_STRING": "NFPEASKLSEHLNHYIL [YCG1]", "ASSIGNED_LABEL": "false"}
{"RESIDUE_STRING": "LSTDATSADLKSKAEEL [UBP6]", "ASSIGNED_LABEL": "false"}
{"RESIDUE_STRING": "IQEQRVKDKQSKVSDDS [RPN8]", "ASSIGNED_LABEL": "false"}
{"RESIDUE_STRING": "TLLESNLCKIIEPFECV [RPN6]", "ASSIGNED_LABEL": "false"}
{"RESIDUE_STRING": "SETFLQFYVKRWKRFTI [CDC53]", "ASSIGNED_LABEL": "false"}
{"RESIDUE_STRING": "LDYQIGNSESKVEKGVN [LIN1]", "ASSIGNED_LABEL": "true"}
{"RESIDUE_STRING": "DDESEQISLNRLIDSMK [RRI1]", "ASSIGNED_LABEL": "true"}
{"RESIDUE_STRING": "LVYNMTSFEQGEITFDG [RPT4]", "ASSIGNED_LABEL": "false"}
{"RESIDUE_STRING": "FNFVLLGQIGACHVEVP [COB]", "ASSIGNED_LABEL": "false"}
{"RESIDUE_STRING": "KQVLLRLNPYAKVFAAE [RPL4A]", "ASSIGNED_LABEL": "false"}
{"RESIDUE_STRING": "DNGESAFRTLRLARSEK [RPL13A]", "ASSIGNED_LABEL": "true"}
{"RESIDUE_STRING": "IKKYASVVRVLVHTQIR [RPL3]", "ASSIGNED_LABEL": "false"}
{"RESIDUE_STRING": "IALLTLKESVEGEFNGD [PRE8]", "ASSIGNED_LABEL": "false"}
{"RESIDUE_STRING": "EDHIFFKYIYELILAGA [YDL116W/NUP84]", "ASSIGNED_LABEL": "false"}
{"RESIDUE_STRING": "IYQHLASHNEKDQDSQI [SRP72]", "ASSIGNED_LABEL": "false"}
{"RESIDUE_STRING": "LQALKANDEEAYIKLLD [SNF2]", "ASSIGNED_LABEL": "true"}
{"RESIDUE_STRING": "SNTNDNISIITLELESF [RGR1]", "ASSIGNED_LABEL": "false"}
{"RESIDUE_STRING": "LDSTGFDSTAFNATVDE [MED2]", "ASSIGNED_LABEL": "true"}
{"RESIDUE_STRING": "CTKLAVYYSKRGFKVGL [SRP54]", "ASSIGNED_LABEL": "false"}
{"RESIDUE_STRING": "FTCSCNSLTVDGNNANY [RPN14]", "ASSIGNED_LABEL": "false"}
{"RESIDUE_STRING": "NLINLSIGASIADLASL [YCS4]", "ASSIGNED_LABEL": "false"}
{"RESIDUE_STRING": "IKIFELKLPADATTWRY [IRR1]", "ASSIGNED_LABEL": "false"}
{"RESIDUE_STRING": "EKPFNENRFQDTLLLLP [POP4]", "ASSIGNED_LABEL": "false"}
{"RESIDUE_STRING": "GGGAARRQAVDVSPLRR [RPS5]", "ASSIGNED_LABEL": "false"}
{"RESIDUE_STRING": "RAGVSQVLNRYTYSSTL [RPB2]", "ASSIGNED_LABEL": "false"}
{"RESIDUE_STRING": "NDLGKFIPNKQLNCVID [RPN7]", "ASSIGNED_LABEL": "false"}

Reference for the values: the supplement of paper PMC9732359
